System: hedgehog signaling pathway
Test: Gli-Luc Reporter Assay for Hh Pathway Inhibition (TMHh-12 cells, pTA-8×Gli-Luc reporter)
Type: cell-based, Mouse
Conditions: Mus musculus, TMHh12, enzymatic and cellular assays for the inhibition of hedgehog signaling pathways; read-out: IC50 Ranges
pIC50: −log10 of the molar value.
PROPERTY LABEL: pIC50

Past entries and their recorded results:
| SMILES CODE | pIC50 |
| --- | --- |
| CCOc1cnc(-c2cc(Nc3cccc4c3CCN(CCS(C)(=O)=O)C4)ccc2C)cn1 | 8.00 to 9.00 |
| O=C(CO)N1CCc2c(cccc2Nc2ccc(Cl)c(-c3ncc(-c4ccccc4)[nH]3)c2)C1 | 9.00 to 12.00 |
| CCS(=O)(=O)N1CCc2c(ncnc2Nc2ccc(C)c(-c3ccc(F)cn3)c2)C1 | 9.00 to 12.00 |
| Cc1ccc(Nc2cccc3c2CCN(S(C)(=O)=O)C3)cc1-c1cccc(C(=O)N2CCCC2)c1 | 5.00 to 6.00 |
| Cc1ccc(Nc2cccc3c2CCN(S(C)(=O)=O)C3)cc1-c1cnn(C)c1 | 6.00 to 7.00 |

For this compound ( `Cc1ccc(Nc2cccc3c2CCN(S(C)(=O)=O)C3)cc1C(=O)Nc1ccccc1` ), measured pIC50 is 9.00 to 12.00

For this compound ( `COc1cc2[nH]c(-c3cc(Nc4cccc5c4CCN(S(C)(=O)=O)C5)ccc3C)nc2cn1` ), measured pIC50 is 7.00 to 8.00

###

Tested on: hedgehog signaling pathway
Experiment: Gli-Luc Reporter Assay for Hh Pathway Inhibition (TMHh-12 cells, pTA-8×Gli-Luc reporter)
Type: cell-based, Mouse
Conditions: Mus musculus, TMHh12, enzymatic and cellular assays for the inhibition of hedgehog signaling pathways; read-out: IC50 Ranges
pIC50: −log10 of the molar value.
PROPERTY LABEL: pIC50

Past entries and their recorded results:
| MOLECULE | ASSAYED SYSTEM | pIC50 |
| --- | --- | --- |
| CS(=O)(=O)N1CCc2c(cccc2Nc2ccc(CO)c(-c3ccc(C#N)cc3)c2)C1 | hedgehog signaling pathway | 6.00 to 7.00 |
| COc1cnc(-c2cc(Nc3cccc4c3CCN(CCS(C)(=O)=O)C4)ccc2C)cn1 | hedgehog signaling pathway | 8.00 to 9.00 |
| CS(=O)(=O)N1CCc2c(ccnc2Nc2ccc(Cl)c(-c3ncc(-c4ccccc4)[nH]3)c2)C1 | hedgehog signaling pathway | 9.00 to 12.00 |
| CC(=O)N1CCc2c(cccc2Nc2ccc(Cl)c(-c3ncc(-c4ccccc4)[nH]3)c2)C1 | hedgehog signaling pathway | 9.00 to 12.00 |

For this molecule ( `Cc1ccc(Nc2cccc3c2CCN(CC2(C)CC2)C3=O)cc1-c1nc2ccccc2[nH]1` ), measured pIC50 is 7.00 to 8.00

For this molecule ( `Cc1ccc(NC(=O)c2cc(Nc3cccc4c3CCN(S(C)(=O)=O)C4)ccc2C)cc1` ), measured pIC50 is 9.00 to 12.00

For this molecule ( `Cc1ccc(Nc2ncnc3c2CCN(S(C)(=O)=O)C3)cc1C(=O)Nc1ccccc1` ), measured pIC50 is 6.00 to 7.00

For this molecule ( `CCOc1cnc(-c2cc(Nc3cccc4c3CCN(C3CS(=O)(=O)C3)C4)ccc2C)cn1` ), measured pIC50 is 8.00 to 9.00

For this molecule ( `CC(C)(C(=O)O)N1CCc2c(cccc2Nc2ccc(Cl)c(-c3nc(-c4ccccc4)c[nH]3)c2)C1` ), measured pIC50 is 8.00 to 9.00

For this molecule ( `Cc1ccc(Nc2cccc3c2CCN(S(C)(=O)=O)C3)cc1-c1ccc2ccccc2n1` ), measured pIC50 is 9.00 to 12.00

These measurements were taken from patent US9216964B2.
